- assay system: Human plasma kallikrein (Homo sapiens, UniProt P03952)
- Construct: yields a heavy chain (371 amino acids) and a light chain (248 amino acids); purchased Enzyme Research Laboratories
- Sequence (P03952 391-638 limits assumed): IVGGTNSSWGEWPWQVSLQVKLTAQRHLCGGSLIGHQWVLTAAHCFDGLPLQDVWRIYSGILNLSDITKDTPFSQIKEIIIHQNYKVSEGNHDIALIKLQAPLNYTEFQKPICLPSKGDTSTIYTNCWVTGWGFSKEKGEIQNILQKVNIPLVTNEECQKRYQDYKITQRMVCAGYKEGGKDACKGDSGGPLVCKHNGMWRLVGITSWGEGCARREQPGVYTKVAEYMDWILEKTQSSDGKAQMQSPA
- Sequence (P03952 20-390 partner limits assumed): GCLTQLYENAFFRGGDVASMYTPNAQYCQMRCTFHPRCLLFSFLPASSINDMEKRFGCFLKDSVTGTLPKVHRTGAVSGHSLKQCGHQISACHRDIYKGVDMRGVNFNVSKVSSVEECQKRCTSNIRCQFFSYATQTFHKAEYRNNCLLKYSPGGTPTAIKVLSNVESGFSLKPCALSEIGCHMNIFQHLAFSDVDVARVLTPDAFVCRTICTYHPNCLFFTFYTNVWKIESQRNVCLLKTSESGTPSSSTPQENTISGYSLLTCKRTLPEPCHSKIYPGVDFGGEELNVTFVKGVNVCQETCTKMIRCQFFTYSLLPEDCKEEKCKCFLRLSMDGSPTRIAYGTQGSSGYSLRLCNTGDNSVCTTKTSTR
- experiment description: Plasma Kallikrein Assay
- Type: biochemical
- condition: purified Human plasma kallikrein 0.5 nM, substrate Acetyl-K-P-R-AFC, pH 7.4
- Experimental: The effectiveness of a compound of the present invention as an inhibitor of plasma kallikrein can be determined using a relevant purified serine protease, and an appropriate synthetic substrate. The rate of hydrolysis of the chromogenic or fluorogenic substrate by the relevant serine protease was measured both in the absence and presence of compounds of the present invention. […] A decrease in the rate of fluorescence change in the presence of inhibitor is indicative of enzyme inhibition. […]
pIC50: −log10 of the molar value.
measurement name: pIC50

[P] CC1CCN1c1ncc(C(C)n2cc(NC(=O)c3cncc(-c4c(C(F)F)ccc(Cl)c4F)n3)cn2)cn1 (racemic)
[Q] O=C(Nc1cnn(C2CCc3nc(N4CCC4)ccc32)c1)c1cncc(-c2c(C(F)F)ccc(Cl)c2F)n1 (single isomer, unassigned)
Select the item whose pIC50 value is smaller, choosing between P and Q . Please indicate the selected item by its label. Q
(Q: 7.48, P: 7.69)

[I] CC(C)(O)CC1CCCN1c1ncc(Cn2cc(NC(=O)c3cncc(-c4c(C(F)F)ccc(Cl)c4F)n3)cn2)cn1 (centres unmarked) [Example 106]
[II] Cc1cc(N2CCC2)ncc1[C@@H](C)n1cc(NC(=O)c2cncc(-c3c(C(F)F)ccc(Cl)c3F)n2)cn1 (single isomer, unassigned)
Select the item whose pIC50 value is smaller, choosing between I and II . Please indicate the selected item by its label. II

[A] CC(c1cnc(N2CC[C@H]2CN2CCCC(C)(O)C2)nc1)n1cc(NC(=O)c2cncc(-c3c(C(F)F)ccc(Cl)c3F)n2)cn1 (some centres unmarked)
[B] Cc1nc(Cn2cc(NC(=O)c3cncc(-c4c(C(F)F)ccc(Cl)c4F)n3)cn2)cnc1N1CC(F)(F)C1
[C] O=C(Nc1cnn([C@@H](CO)c2cnc(N3CCC3)nc2)c1)c1cncc(-c2c(C(F)F)ccc(Cl)c2F)n1 (single isomer, unassigned)
[D] O=C(Nc1cnn(Cc2cnc(N3CCCC3CCO)nc2)c1)c1cncc(-c2c(C(F)F)ccc(Cl)c2F)n1 (single isomer, unassigned) [Example 105]
# desc sort on pIC50 across 4 molecules Please write the labels in the order that was asked for. A, B, C, D
(A: 8.85, B: 8.09, C: 7.64, D: 7.43)

====

Dear all, this message contains pIC50 results, target or system human factor XIa (Homo sapiens, UniProt P03951).
pIC50: −log10 of the molar value.
measurement name: pIC50

Past entries and their recorded results:
compound	assay system	pIC50
CS(=O)(=O)c1ccc(Cl)c(F)c1-c1cncc(C(=O)Nc2cnn(Cc3cnc(N4CCC4)nc3)c2)n1 [Example 207]	human factor XIa (Homo sapiens, UniProt P03951)	6.17
C[C@H](O)[C@H]1[C@H]2C[C@H]2CN1c1ncc(Cn2cc(NC(=O)c3cncc(-c4c(C(F)F)ccc(Cl)c4F)n3)cn2)cn1 [Example 84]	human factor XIa (Homo sapiens, UniProt P03951)	5.14
C[C@@H](c1cnc(N2CC(F)C2)nc1)n1cc(NC(=O)c2cncc(-c3c(C(F)F)ccc(Cl)c3F)n2)cn1 [Example 92]	human factor XIa (Homo sapiens, UniProt P03951)	5.30
CC(c1cnc(N2Cc3cccnc3C2)nc1)n1cc(NC(=O)c2cncc(-c3c(C(F)F)ccc(Cl)c3F)n2)cn1 (stereo not shown) [Example 83]	human factor XIa (Homo sapiens, UniProt P03951)	5.09
O=C(Nc1cnn(Cc2cnc(N3C[C@H]4C[C@H]4[C@H]3CN[C@H]3CCC[C@@H]3O)nc2)c1)c1cncc(-c2c(C(F)F)ccc(Cl)c2F)n1 [Example 149]	human factor XIa (Homo sapiens, UniProt P03951)	5.83

[I] CC(c1cnc(N2CC[C@H]2[C@@H](C)N2C[C@@H](O)[C@@H](O)C2)nc1)n1cc(NC(=O)c2cncc(-c3c(C(F)F)ccc(Cl)c3F)n2)cn1 (stereo partly shown) [Example 187]
[II] CC(c1cnc(N2C[C@H]3C[C@H]3C2C(=O)N(C)C)nc1)n1cc(NC(=O)c2cncc(-c3c(C(F)F)ccc(Cl)c3F)n2)cn1 (single isomer, unassigned) [Example 200]
Higher pIC50 between I and II ? Please indicate the selected item by its label. II
(II: 5.95, I: 5.48)

[I] O=C(Nc1cnn(Cc2cnc(N3CC[C@@H]3CO)nc2)c1)c1cncc(-c2c(C(F)F)ccc(Cl)c2F)n1 [Example 111]
[II] COc1ccc(C(F)F)c(-c2cncc(C(=O)Nc3cnn(Cc4cnc(N5CCC5)nc4)c3)n2)c1F [Example 208]
Select the item whose pIC50 value is smaller, choosing between I and II . Please indicate the selected item by its label. I

[P] O=C(Nc1cnn(Cc2cnc(N3C[C@H]4C[C@H]4[C@H]3CO)nc2)c1)c1cncc(-c2c(C(F)F)ccc(Cl)c2F)n1 [Example 73]
[Q] Cc1ncc(-c2c(C(F)F)ccc(Cl)c2F)nc1C(=O)Nc1cnn(C(C)c2cnc(N3CCC3)nc2)c1 (single isomer, unassigned) [Example 27]
Higher pIC50 between P and Q ? Please indicate the selected item by its label. Q
(Q: 6.06, P: 5.83)

====

- assay system: Human plasma kallikrein (Homo sapiens)
- Construct: yields a heavy chain (371 amino acids) and a light chain (248 amino acids)
- experiment description: Plasma Kallikrein Assay
- condition: purified Human plasma kallikrein 0.5 nM, substrate Acetyl-K-P-R-AFC, pH 7.4
pIC50: −log10 of the molar value.
measurement name: pIC50

molecule	recorded result
O=C(Nc1cnn(C2CCc3cc(N4CCC4)ncc32)c1)c1cncc(-c2c(C(F)F)ccc(Cl)c2F)n1 (single isomer, unassigned)	7.84

[P] CC(c1cnc(N2CCC2)nc1)n1cc(NC(=O)c2cncc(-c3c(OC(F)F)ccc(Cl)c3F)n2)cn1 (single isomer, unassigned) [Example 56]
[Q] CC(c1cnc(N2CC[C@H]2CN2C[C@@H](O)[C@H](F)C2)nc1)n1cc(NC(=O)c2cncc(-c3c(C(F)F)ccc(Cl)c3F)n2)cn1 (stereo partly drawn)
Select the item whose pIC50 value is smaller, choosing between P and Q . Please indicate the selected item by its label. P

[1] COc1ccc(-n2cnnn2)c(-c2cncc(C(=O)Nc3cnn(C(C)c4cnc(N5CCC5)nc4)c3)n2)c1 (single isomer, unassigned) [Example 61]
[2] CC(c1cnc(N2CC[C@H]2[C@@H](C)N2CC(C)(O)C2)nc1)n1cc(NC(=O)c2cncc(-c3c(C(F)F)ccc(Cl)c3F)n2)cn1 (stereo partly drawn)
Higher pIC50 between 1 and 2 ? Please indicate the selected item by its label. 2

[I] O=C(Nc1cnn(S(=O)(=O)c2ccc(N3CCC3)nc2)c1)c1cncc(-c2c(C(F)F)ccc(Cl)c2F)n1
[II] CC1C2CC2CN1c1ncc(C(CO)n2cc(NC(=O)c3cncc(-c4c(C(F)F)ccc(Cl)c4F)n3)cn2)cn1 (single isomer, unassigned) [Example 49]
Select the item whose pIC50 value is smaller, choosing between I and II . Please indicate the selected item by its label. I
(I: 7.34, II: 7.75)

[a] O=C(Nc1cnn(Cc2cnc(N3CCCC3CN3C[C@H](F)[C@@H](F)C3)nc2)c1)c1cncc(-c2c(C(F)F)ccc(Cl)c2F)n1 (stereo partly drawn)
[b] CC1(O)CN(C[C@@H]2CCCN2c2ncc(Cn3cc(NC(=O)c4cncc(-c5c(C(F)F)ccc(Cl)c5F)n4)cn3)cn2)C1
Select the item whose pIC50 value is smaller, choosing between a and b . Please indicate the selected item by its label. a
(a: 8.02, b: 9.00)

====

- assay system: Human plasma kallikrein (Homo sapiens, UniProt P03952)
- Construct: yields a heavy chain (371 amino acids) and a light chain (248 amino acids)
- experiment description: Plasma Kallikrein Assay
- condition: purified Human plasma kallikrein 0.5 nM, substrate Acetyl-K-P-R-AFC, pH 7.4
measurement name: IC50 (nM)

molecule	recorded result
CC(c1cnc(N2C[C@H]3C[C@H]3C2C(=O)N(C)C)nc1)n1cc(NC(=O)c2cncc(-c3c(C(F)F)ccc(Cl)c3F)n2)cn1 (single isomer, unassigned) [Example 201]	6.2

[P] Cc1ncc(-c2c(C(F)F)ccc(Cl)c2F)nc1C(=O)Nc1cnn(C(C)c2cnc(N3CCC3)nc2)c1 (single isomer, unassigned) [Example 28]
[Q] C[C@@H](O)c1ncc(-c2c(C(F)F)ccc(Cl)c2F)nc1C(=O)Nc1cnn(Cc2cnc(N3CCC3)nc2)c1 (single isomer, unassigned)
Select the item whose IC50 value is smaller, choosing between P and Q . Please indicate the selected item by its label. Q
(Q: 2.8 nM, P: 11.9 nM)

====

- assay system: Human plasma kallikrein (Homo sapiens)
- Construct: yields a heavy chain (371 amino acids) and a light chain (248 amino acids)
- experiment description: Plasma Kallikrein Assay
- condition: purified Human plasma kallikrein 0.5 nM, substrate Acetyl-K-P-R-AFC, pH 7.4
measurement name: IC50 (nM)

molecule	recorded result
CC(c1cnc(N2CC[C@H]2CN2C[C@H](O)C[C@H]2C)nc1)n1cc(NC(=O)c2cncc(-c3c(C(F)F)ccc(Cl)c3F)n2)cn1 (some centres unmarked) [Example 164]	3.4

[I] O=C(Nc1cnn(Cc2ccc(N3CC[C@H]3CO)nc2)c1)c1cncc(-c2c(C(F)F)ccc(Cl)c2F)n1 [Example 126]
[II] CC(c1cnc(N2CC[C@H]2[C@@H](C)NCC2(O)CC2)nc1)n1cc(NC(=O)c2cncc(-c3c(C(F)F)ccc(Cl)c3F)n2)cn1 (some centres unmarked) [Example 192]
[III] O=C(Nc1cnn(Cc2cnc(N3CCC3)c(F)c2)c1)c1cncc(-c2c(C(F)F)ccc(Cl)c2F)n1 [Example 12]
# desc sort on IC50 across 3 molecules Please write the labels in the order that was asked for. I, III, II
